biological target: GAPDH (Oryctolagus cuniculus, UniProt P46406); experiment: fluorescence titration
Sequence (P46406 whole entry): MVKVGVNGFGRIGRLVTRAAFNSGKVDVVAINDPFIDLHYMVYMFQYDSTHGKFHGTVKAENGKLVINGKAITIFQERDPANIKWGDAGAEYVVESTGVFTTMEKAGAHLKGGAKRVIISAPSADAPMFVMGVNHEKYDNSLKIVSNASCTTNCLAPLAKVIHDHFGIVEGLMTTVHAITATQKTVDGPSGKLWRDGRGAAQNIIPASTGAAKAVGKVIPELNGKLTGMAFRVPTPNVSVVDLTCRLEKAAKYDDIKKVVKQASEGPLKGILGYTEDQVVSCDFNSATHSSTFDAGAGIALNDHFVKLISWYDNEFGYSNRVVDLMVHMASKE
Where no end group is shown, it is not given here. [ ]: non-standard residue; d: D form. pY = N[C@@H](Cc1ccc(OP(=O)(O)O)cc1)C(=O)O
The entries below come with measured pKd values attached.
The read-out pKd is expressed as -log10 of concentration in moles per litre.

Example results:
> print(dat)
                                     binder  recordedvalue
1  LIFRNVELQCLDADDAKATFDEEEGRDEYDEVAMPV [AE1 C-terminal domain (AE1C-WT) 876-911]           5.64
2  CLDADDAKATFDEEEGRDEYDEVAMPV [AE1 C-terminal peptide AE1C-Y904]           5.49

Alright, here's another binder for you.
In: Please report the measured pKd for CLDADDAKATFDEEEGRDE[pY]DEVAMPV [AE1 C-terminal peptide AE1C-pY904]
Out: 5.59
